// provenance: a melting point compilation (Tetko et al.; mined from patent text by program, amines drawn as free bases though some values may be those of a salt)

Reported Metric: melting point

Example entries and their recorded answers appear below.
Compound: COc1cn(-c2ccc(I)cc2F)nc(-c2ccnn2-c2ccccc2)c1=O
Val: 194 to 196 °C
--
Compound: CON1C=C2N=Nc3cc(C)cnc3N2C1
Val: 213 to 214 °C
--
Compound: COc1ccc(C(=O)Nc2nc3cc4c(cc3[nH]2)NC(=O)C4(C)C)cc1
Val: > 300 °C
--
Compound: CC(C)n1nc(-c2cnc(N)nc2-c2ccccc2C(F)(F)F)ccc1=O
Val: 160 to 161 °C
--
Compound: CC(C)Oc1ccc(C2CCc3cccc(C(=O)O)c3N2)cc1 (stereo not given)
Val: 166 to 167 °C
--
Compound: COc1cccc(C(=O)c2c(N)sc3c2CCN(Cc2ccccc2)C3)c1OC
Val: 172 to 173 °C

Would you mind telling me what melting point value was observed for CCOC(C)=NS(=O)(=O)c1nc(-c2ccccc2)ns1 ? 120 to 122 °C

Okay, and CC12CCC(=O)C=C1CCC1C2=CCC2(C)C(=O)CCC12 (stereo not given) ? 196 to 202 °C

Record: O=C(O)c1ccc(OCCCc2ccc(O)c(O)c2)cc1 180 to 185 °C

Consider next the compound CCCCCCCNC(=O)Nc1cccc(-c2ccc(C=C(OC)C(=O)O)cc2OCCCC)c1 in the same way. 137 °C

###

Recorded melting point for the following compounds

Worked set:
Compound: O=C(Nc1cc(Cl)ccc1C(=O)O)NS(=O)(=O)c1ccc(OCCN2CCN(c3ccccc3)CC2)cc1
Reported Metric: melting point
Val: 177 to 179 °C
--
Compound: CN1Cc2c(-c3noc(CN4CCCCC4)n3)ncn2-c2ccccc2C1=O
Reported Metric: melting point
Val: 167 to 168 °C
--
Compound: Nc1nc2ccccc2c2c1nc(CCO)n2CC1(O)CCOCC1
Reported Metric: melting point
Val: 237 to 238 °C
--
Compound: CCCCCCCNC(=O)N(C)c1cccc(-c2ccc(CC(Nc3ccccc3C(=O)c3ccccc3)C(=O)O)cc2)c1 (stereo not drawn)
Reported Metric: melting point
Val: 105 °C
--
Compound: CCN(CC)C(=O)C1=NN(c2ccccc2)C(C(N)=O)=NN1c1ccccc1
Reported Metric: melting point
Val: 239 to 240 °C

So what does the record say about melting point for C=C(C)Sc1oc2cc(OCc3ccccc3)ccc2c(=O)c1-c1ccc(OC)cc1 ? 101 to 102 °C

Try CCCCC(CNC(=O)Nc1c(C(C)C)cccc1C(C)C)c1cccc(C)c1 (stereo not drawn) next. 173 to 174 °C

What do you have for CCCCc1nn(-c2ccccc2C(F)(F)F)c(=O)n1Cc1ccc(-c2ccccc2S(N)(=O)=O)cc1 ? 74 to 76 °C

###

Reported Metric: melting point

Field: example entries. Status: answers known.
Molecule: COC(=O)c1ccc(=O)n(CCNC(=O)c2ccccc2)c1
melting point: 190 to 191 °C

Molecule: CC1CC(=O)N(Cc2ccccc2)c2ccccc2N1C(=O)CN1C(=O)c2ccccc2C1=O (stereo not given)
melting point: 248 to 250 °C

Molecule: CCC(C)(Cc1c[nH]c2ccccc12)[N+](=O)[O-] (stereo not given)
melting point: 79.5 to 80 °C

Entry under review: CCCc1ccc(COc2ccc3c(c2)CCC(CN2CC(C(=O)O)C2)=C3C)c(OC)c1 . Reported melting point? 158 to 163 °C

Repeat with C=C1CC2C(CCC3(C)C2CCC3(OC(C)=O)C(C)=O)C2(C)C1=CC(=O)CC2CCl (stereo not given) 190 to 192 °C

Now this one: Cc1cc(C(N)=O)ncc1C(c1c(F)ccc(F)c1F)S(=O)(=O)CC1CC(F)(F)C1 (stereo not given) 205 to 207 °C

Entry CC(=S)c1ccc(-c2ccccc2)cc1 please 48 to 50 °C

Subsequent entry: COC(=O)c1ccc2c(c1)CN(C(=O)OCc1ccccc1)C2 59 to 65 °C

Next up: N#Cc1cc(C#N)cc(CO)c1 119 to 120 °C

Then this molecule: O=Cc1cc([N+](=O)[O-])ccc1OC/C=C/CCl 65 to 66 °C
